- System: NCI-H1876 tumor spheroid viability
- method-summary: Anticancer human tumor NCI-H1876 cell line growth inhibition;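 also: spheroids exposed to compounds for seven days before the viability read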
- experimental-context: second compound 31.6 µM; first compound 10 µM; hits give low values; spheroids with HUVEC and MSC
- Protocol: Multicellular complex tumor spheroid response to DNA repair inhibitors in combination with DNA-damaging drugs This study explores the anticancer activities of DNA-damaging drugs and inhibitors of DNA damage repair, both as single agents and in combinations. […] Twenty-six patient-derived or established malignant cell lines were evaluated representing sarcoma, melanoma, small cell lung cancer (SCLC), non-small cell lung cancer (NSCLC), as well as bladder, ovarian and pancreatic cancers. […]
Cut-off 10% on viability, T/C: below means t, at or above means f.

[[record]]
compound = "CC(C)n1c(=O)n(C)c2cnc3cc(F)c(-c4ccc(OCCCN5CCCCC5)nc4)cc3c21 + Cn1nnc2c(C(N)=O)ncn2c1=O"
category_label = "f"

[[record]]
compound = "Cc1cc(C)c(CNC(=O)c2cc(-c3ccc(CN4CCOCC4)cc3)cc3c2cnn3C2CCCC2)c(=O)[nH]1 + Cn1nnc2c(C(N)=O)ncn2c1=O"
category_label = "f"

[[record]]
compound = "COc1cc(C)[nH]c(=O)c1CN1CCc2c(Cl)cc(C(OC)C3COC3)c(Cl)c2C1=O (stereo unspecified) + Cn1nnc2c(C(N)=O)ncn2c1=O"
category_label = "f"

[[record]]
compound = "COc1ccc([C@@H](O)c2cc(-c3ncnc4cc(N5CCOCC5)ccc34)c(F)cc2Cl)nn1 + Cn1nnc2c(C(N)=O)ncn2c1=O"
category_label = "t"


query: Is the reported viability, T/C for [2H]c1nc(C)nc([2H])c1-c1cc(NC[C@@H](C)c2cccc3c(C(=O)NC)ccnc23)ncn1 + Cn1nnc2c(C(N)=O)ncn2c1=O strictly below 10%?
result: f

query: Is the reported viability, T/C for CC1COCCN1c1cc(-c2ccnn2C)c2ccnc(-c3ccn[nH]3)c2n1 (stereo unspecified) + Cn1nnc2c(C(N)=O)ncn2c1=O strictly below 10%?
result: t

====

- Test system: NCI-H1876 tumor spheroid viability
- method-summary: Anticancer human tumor NCI-H1876 cell line growth inhibition;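 also: spheroids exposed to compounds for seven days before the viability read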
- experimental-context: second compound 0.003 µM; first compound 0.316 µM; hits give low values; spheroids with HUVEC and MSC
Cut-off 0.6% on viability, T/C: below means rule met, at or above means rule not met.

[[record]]
compound = "CC(C)n1c(=O)n(C)c2cnc3cc(F)c(-c4ccc(OCCCN5CCCCC5)nc4)cc3c21 + COc1cc2c(cc1O)CCNC21CSC2c3c(OC(C)=O)c(C)c4c(c3C(COC1=O)N1C(O)C3Cc5cc(C)c(OC)c(O)c5C(C21)N3C)OCO4"
measured_target = "NCI-H1876 tumor spheroid viability"
category_label = "rule met"


query: Is the reported viability, T/C for COc1cc(C)[nH]c(=O)c1CN1CCc2c(Cl)cc(C(OC)C3COC3)c(Cl)c2C1=O (stereo not given) + CC[C@@]1(O)C(=O)OCc2c1cc1n(c2=O)Cc2cc3c(CN(C)C)c(O)ccc3nc2-1 strictly below 0.6%?
result: rule not met

query: Is the reported viability, T/C for Cc1cc(C)c(CNC(=O)c2cc(-c3ccc(CN4CCOCC4)cc3)cc3c2cnn3C2CCCC2)c(=O)[nH]1 + CC[C@@]1(O)C(=O)OCc2c1cc1n(c2=O)Cc2cc3c(CN(C)C)c(O)ccc3nc2-1 strictly below 0.6%?
result: rule not met

query: Is the reported viability, T/C for COc1ccc([C@@H](O)c2cc(-c3ncnc4cc(N5CCOCC5)ccc34)c(F)cc2Cl)nn1 + COc1cc2c(cc1O)CCNC21CSC2c3c(OC(C)=O)c(C)c4c(c3C(COC1=O)N1C(O)C3Cc5cc(C)c(OC)c(O)c5C(C21)N3C)OCO4 strictly below 0.6%?
result: rule met

query: Is the reported viability, T/C for CC(C)n1c(=O)n(C)c2cnc3cc(F)c(-c4ccc(OCCCN5CCCCC5)nc4)cc3c21 + CC[C@@]1(O)C(=O)OCc2c1cc1n(c2=O)Cc2cc3c(CN(C)C)c(O)ccc3nc2-1 strictly below 0.6%?
result: rule not met
